Below, each of the molecules is paired with its reported melting point value.

Solved cases below.
CN1C(=O)C(c2ccncc2)(c2cccc(-c3ccsc3)c2)N=C1N (stereo not drawn) : 217 to 219 °C
CCc1cc(C2(c3cccc(-c4cccnc4)c3)N=C(N)N(C)C2=O)cc(CC)n1 (stereo not drawn) : 152 to 157 °C
COc1ccc(F)cc1-c1cccc(C2(c3ccncc3)N=C(N)N(C)C2=O)c1 (stereo not drawn) : 233 to 235 °C
CCc1cc(C2(c3cccc(-c4cnccn4)c3)N=C(N)N(C)C2=O)cc(C)n1 (stereo not drawn) : 130 to 134 °C
CN1C(=O)C(c2ccncc2)(c2cccc(-c3ccn(C)n3)c2)N=C1N (stereo not drawn) : 199 to 201 °C

What value of melting point has been recorded for this entry: CN1C(=O)C(c2ccncc2)(c2cccc(-c3cc(F)cnc3Cl)c2)N=C1N (stereo not drawn) 120 to 122 °C

What value of measured melting point is listed for CN1C(=O)C(c2ccncc2)(c2cccc(-c3cccc(OC(F)(F)F)c3)c2)N=C1N (stereo not drawn) ? 208 to 210 °C

What value of melting point has been reported for the following molecule? Cc1cc(C2(c3cccc(-c4cnccn4)c3)N=C(N)N(C)C2=O)ccn1 (stereo not drawn) 138 to 141 °C

Give its melting point value. Item: CN1C(=O)C(c2cccc(-c3cccnc3F)c2)(c2ccncc2F)N=C1N (stereo not drawn) 237 to 238 °C

Which melting point is reported for this molecule? Cc1cc(C2(c3cccc(-c4cc(F)ccc4F)c3)N=C(N)N(C)C2=O)ccn1 (stereo not drawn) 161 to 163 °C

Quick check: melting point of CC(=O)c1cccc(-c2cccc(C3(c4ccncc4)N=C(N)N(C)C3=O)c2)c1 (stereo not drawn) ? 218 to 220 °C

Please report the recorded melting point for CN1C(=O)C(c2cccnc2)(c2cccc(-c3ccccc3)c2)N=C1N (stereo not drawn) . 212 to 214 °C

Please look up its melting point: CCc1cc(C2(c3cccc(-c4cc(F)ccc4F)c3)N=C(N)N(C)C2=O)cc(C)n1 (stereo not drawn) 114 to 117 °C

Data request, read-out melting point, for Cc1cc(C2(c3cccc(-c4cncnc4)c3)N=C(N)N(C)C2=O)cc[n+]1[O-] (stereo not drawn) 181 to 186 °C

Can you share its melting point? I mean this molecule: CN1C(=O)C(c2ccc(OC(F)F)cc2)(c2cccnc2)N=C1N (stereo not drawn) 173 to 175 °C

Need melting point, item CN1C(=O)C(c2cccc(-c3cccnc3)c2)(c2ccnc(Cl)c2)N=C1N (stereo not drawn) 223 to 225 °C

Name the recorded melting point for CN1C(=O)C(c2ccncc2)(c2cccc(O)c2)N=C1N (stereo not drawn) . 245 to 247 °C

Bench note: what melting point did CN1C(=O)C(c2ccncc2)(c2cccc(-c3cc[nH]n3)c2)N=C1N (stereo not drawn) show? 148 to 150 °C

Recorded melting point for CN1C(=O)C(c2ccncc2)(c2cccc(-c3cccc(CO)c3)c2)N=C1N (stereo not drawn) , please? 177 to 179 °C

Recorded melting point for CN1C(=O)C(c2ccccc2)(c2cccnc2)N=C1N (stereo not drawn) , please? 205 to 206 °C

Fill in the blank: the reported melting point of CN1C(=O)C(c2ccncc2)(c2cccc(OCC3CC3)c2)N=C1N (stereo not drawn) is ____. 200 to 202 °C

* * *

Here, each record is paired with measured IC50 data.
- tgt: UniProtKB P56817
- Sequence (P56817 46-501): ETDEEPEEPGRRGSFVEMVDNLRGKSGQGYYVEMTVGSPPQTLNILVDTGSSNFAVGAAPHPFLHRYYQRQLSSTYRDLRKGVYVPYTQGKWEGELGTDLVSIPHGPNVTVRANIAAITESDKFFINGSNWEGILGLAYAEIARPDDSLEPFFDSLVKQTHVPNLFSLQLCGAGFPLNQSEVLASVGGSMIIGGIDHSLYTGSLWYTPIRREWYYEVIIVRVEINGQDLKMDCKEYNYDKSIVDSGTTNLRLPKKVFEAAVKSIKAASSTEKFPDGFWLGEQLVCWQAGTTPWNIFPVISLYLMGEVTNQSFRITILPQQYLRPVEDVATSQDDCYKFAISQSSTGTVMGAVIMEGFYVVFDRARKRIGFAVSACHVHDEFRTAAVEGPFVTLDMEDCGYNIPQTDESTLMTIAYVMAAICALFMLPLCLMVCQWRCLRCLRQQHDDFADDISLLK
- procedure-summary: Fluorescent kinetic assay, BACE-1 (Example 114)
- Type: biochemical
- reported-conditions: 10 nM human BACE1, 25 μM substrate WABC-6, 50 mM Na-Acetate pH 4.5, room temperature; read-out: BACE-1 (IC50 μM)

// worked examples, IC50 included
CN1C(=O)C(c2ccccc2)(c2cccnc2)N=C1N (centres unmarked) : > 1 µM
CN1C(=O)C(c2ccncc2)(c2ccc(OC(F)F)cc2)N=C1N (centres unmarked) : > 1 µM
COc1ncc(C2(c3cccc(-c4cccnc4F)c3)N=C(N)N(C)C2=O)c(OC)n1 (centres unmarked) : 0.11 to 1 µM
COc1ccc(C2(c3ccnc(-c4ccccc4)c3)N=C(N)N(C)C2=O)cc1C (centres unmarked) : 0.11 to 1 µM
CN1C(=O)[C@@](c2ccncc2)(c2ccc(F)c(-c3cccnc3F)c2)N=C1N [Example 113B] : > 1 µM

Field request: IC50 | item: CCc1cc(C2(c3cccc(-c4cccnc4)c3)N=C(N)N(C)C2=O)cc(CC)n1 (centres unmarked) 0.01 to 0.1 µM

Returns the measured IC50 for the input compound. Input: Cc1cc(C2(c3cccc(-c4cnccn4)c3)N=C(N)N(C)C2=O)cc(C)n1 (centres unmarked) 0.11 to 1 µM
